Molecular target: cloned human CRTH2 receptor (Homo sapiens)
Sequence (Q9Y5Y4 whole entry): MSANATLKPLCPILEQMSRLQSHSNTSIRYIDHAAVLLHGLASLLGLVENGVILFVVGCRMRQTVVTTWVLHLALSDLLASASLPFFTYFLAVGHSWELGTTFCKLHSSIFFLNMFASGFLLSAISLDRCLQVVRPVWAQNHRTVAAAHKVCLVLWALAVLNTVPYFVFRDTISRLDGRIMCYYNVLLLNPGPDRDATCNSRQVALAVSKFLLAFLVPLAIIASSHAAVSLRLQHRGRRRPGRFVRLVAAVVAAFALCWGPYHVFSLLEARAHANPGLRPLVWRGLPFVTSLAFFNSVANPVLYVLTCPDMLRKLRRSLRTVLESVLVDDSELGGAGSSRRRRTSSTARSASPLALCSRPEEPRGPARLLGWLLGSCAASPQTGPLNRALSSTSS
measurement kind: Ki

Example cases with answers are listed next.
INSERT INTO measurements (compound, result_value) VALUES
  ('CCC(=O)N(c1ccccc1)[C@@H]1C[C@H](C)N(C(=O)c2ccc(-c3ccc([N+](=O)[O-])cc3)o2)c2ccccc21 (racemic)', '< 10 µM'),
  ('CCC(=O)N(c1ccccc1)[C@@H]1C[C@H](C)N(C(=O)c2ccnc(C)c2)c2ccccc21 (racemic)', '< 10 µM'),
  ('COc1ccc(C(=O)N2c3ccccc3[C@H](N(C(C)=O)c3cccc(C(=O)O)c3)C[C@@H]2C)cc1 (racemic)', '< 10 µM'),
  ('CC(=O)N(c1ccccc1)C1CC(C)N(C(=O)c2ccc(F)cc2)c2ccccc21 (centres unmarked)', '< 60 µM'),
  ('COc1cccc(C(=O)N2c3ccccc3[C@H](N(C(=O)c3ccc(Cl)cc3)c3ccccc3)C[C@@H]2C)c1 (racemic)', '< 10 µM'),
  ('CCOC(=O)C(C)(C)Oc1ccc2c(c1)[C@H](N(C(=O)CC)c1ccc(Cl)cc1)C[C@H](C)N2C(=O)c1ccc(F)cc1 (racemic)', '< 10 µM'),
  ('CCC(=O)N(c1ccc(Cl)cc1)[C@@H]1C[C@H](C)N(C(=O)c2ccc(F)cc2)c2cccc(OC)c21 (racemic)', '< 10 µM'),
  ('CCOCCOc1ccc2c(c1)C(N(C(=O)CC)c1ccc(Cl)cc1)CC(C)N2C(=O)c1ccc(F)cc1 (centres unmarked)', '< 10 µM'),
  ('CCN(CC)c1ccc(N(C(C)=O)[C@@H]2C[C@H](C)N(C(=O)c3ccc(N(C)C)cc3)c3cc(N(CC)CC)ccc32)cc1 (racemic)', '< 10 µM'),
  ('CCC(=O)N(c1ccc(Cl)cc1)[C@@H]1C[C@H](C)N(C(=O)c2ccc(F)cc2)c2ccc(OC(C)(C)C(=O)O)cc21 (racemic)', '< 10 µM');

Param item: COc1cccc(C(=O)N2c3c(C)cccc3[C@H](N(C(C)=O)c3ccc(Cl)cc3)C[C@@H]2C)c1 (racemic) ; param system: cloned human CRTH2 receptor (Homo sapiens); output Ki: < 10 µM

Param item: COc1cccc(C(=O)N2c3ccccc3[C@H](N(C(=O)C3CCCCC3)c3ccccc3)C[C@@H]2C)c1 (racemic) ; param system: cloned human CRTH2 receptor (Homo sapiens); output Ki: < 10 µM

Param item: COc1cccc(C(=O)N2c3ccccc3C(N(C(C)=O)c3ccccc3)CC2(C)C)c1 (centres unmarked) ; param system: cloned human CRTH2 receptor (Homo sapiens); output Ki: < 60 µM

Param item: C[C@H]1C[C@@H](N(C(=O)COc2ccccc2)c2ccccc2)c2ccccc2N1C(=O)c1ccc(F)cc1 (racemic) ; param system: cloned human CRTH2 receptor (Homo sapiens); output Ki: < 10 µM

Param item: `CC(=O)N(c1ccccc1)[C@H]1C[C@@H](C)N(C(=O)c2cccs2)c2ccccc21` ; param system: cloned human CRTH2 receptor (Homo sapiens); output Ki: < 10 µM

Param item: `COc1ccc(C(=O)N2c3ccccc3[C@H](N(C(C)=O)c3ccc(C(C)(C)C(=O)O)cc3)C[C@@H]2C)cc1` ; param system: cloned human CRTH2 receptor (Homo sapiens); output Ki: < 10 µM

Param item: CCC(=O)N(c1ccc(Cl)cc1)[C@@H]1C[C@H](C)N(C(=O)c2ccc(F)cc2)c2ccc(N3CCOCC3)cc21 (racemic) ; param system: cloned human CRTH2 receptor (Homo sapiens); output Ki: < 10 µM

Provenance of the data: patent US7504508B2
